- Test Method Notes: Ratio of fAUC (0 to 8 hrs) in epithelial lining fluid to plasma of Staphylococcus aureus-infected BALB/c mouse at 12.5 mg/kg, sc administered as single dose
- Type: ADME, organism-based
- Parameters: dose 12.5 mg/kg, route subcutaneous
Measure Name: Kp uu
Write no unit; give the number alone.

For this compound ( CN(C)c1cc(NC(=O)CNC(C)(C)C)c(O)c2c1C[C@H]1C[C@H]3[C@H](N(C)C)C(O)=C(C(N)=O)C(=O)[C@@]3(O)C(O)=C1C2=O [TIGECYCLINE] ), measured Kp uu is 7.02

###

- Test Method Notes: AUC (0 to 24 hrs) in BALB/c mouse infected with Staphylococcus aureus at 25 mg/kg, sc administered as single dose
- Format: ADME, organism-based
- Set-up: time < 24 hr, dose 25 mg/kg, route subcutaneous
- Measurement Context: plasma
Measure Name: AUC(0-t) at 24 h (ng·h/mL)
Only the number, expressed in ng·h/mL, is required.

For this compound ( CN(C)c1cc(NC(=O)CNC(C)(C)C)c(O)c2c1C[C@H]1C[C@H]3[C@H](N(C)C)C(O)=C(C(N)=O)C(=O)[C@@]3(O)C(O)=C1C2=O [TIGECYCLINE] ), measured AUC(0-t) at 24 h is 37500

###

- Test Method Notes: Ratio of fAUC (0 to 8 hrs) in epithelial lining fluid to plasma of Staphylococcus aureus-infected BALB/c mouse at 50 mg/kg, sc administered as single dose
- Type: ADME, organism-based
- Parameters: dose 50 mg/kg, route subcutaneous
Measure Name: Kp uu
Write no unit; give the number alone.

For this molecule ( CN(C)c1cc(NC(=O)CNC(C)(C)C)c(O)c2c1C[C@H]1C[C@H]3[C@H](N(C)C)C(O)=C(C(N)=O)C(=O)[C@@]3(O)C(O)=C1C2=O [TIGECYCLINE] ), measured Kp uu is 23.9

###

- Test system: Staphylococcus aureus
- Test Method Notes: Antibacterial activity against community-acquired methicillin-resistant Staphylococcus aureus 147 by microdilution method
- Format: functional
Measure Name: MIC (µg/mL)
Only the number, expressed in µg/mL, is required.

C[C@H]1c2cccc(O)c2C(=O)C2=C(O)[C@]3(O)C(=O)C(C(N)=O)=C(O)[C@@H](N(C)C)[C@@H]3[C@@H](O)[C@@H]21.O [DOXYCYCLINE]: 2
CN(C)c1cc(NC(=O)CNC(C)(C)C)c(O)c2c1C[C@H]1C[C@H]3[C@H](N(C)C)C(O)=C(C(N)=O)C(=O)[C@@]3(O)C(O)=C1C2=O [TIGECYCLINE]: 0.25
C[C@H]1COc2c(N3CCN(C)CC3)c(F)cc3c(=O)c(C(=O)O)cn1c23.C[C@H]1COc2c(N3CCN(C)CC3)c(F)cc3c(=O)c(C(=O)O)cn1c23.O [LEVOFLOXACIN]: 8

For this molecule ( CCC[C@@H]1C[C@@H](C(=O)N[C@@H]([C@H]2O[C@H](SC)[C@H](O)[C@@H](O)[C@H]2O)[C@H](C)Cl)N(C)C1 [CLINDAMYCIN] ), measured MIC is 0.125

###

- Test system: Staphylococcus aureus
- Test Method Notes: Antibacterial activity against methicillin-susceptible Staphylococcus aureus ATCC 29213 by microdilution method
- Type: functional
Measure Name: MIC (µg/mL)
Only the number, expressed in µg/mL, is required.

Some entries whose results are on file:
CN(C)c1cc(NC(=O)CNC(C)(C)C)c(O)c2c1C[C@H]1C[C@H]3[C@H](N(C)C)C(O)=C(C(N)=O)C(=O)[C@@]3(O)C(O)=C1C2=O [TIGECYCLINE]: 0.25
C[C@H]1c2cccc(O)c2C(=O)C2=C(O)[C@]3(O)C(=O)C(C(N)=O)=C(O)[C@@H](N(C)C)[C@@H]3[C@@H](O)[C@@H]21.O [DOXYCYCLINE]: 0.5

For this molecule ( CCC[C@@H]1C[C@@H](C(=O)N[C@@H]([C@H]2O[C@H](SC)[C@H](O)[C@@H](O)[C@H]2O)[C@H](C)Cl)N(C)C1 [CLINDAMYCIN] ), measured MIC is 0.125

For this molecule ( CC[C@H]1OC(=O)[C@H](C)[C@@H](O[C@H]2C[C@@](C)(OC)[C@@H](O)[C@H](C)O2)[C@H](C)[C@@H](O[C@@H]2O[C@H](C)C[C@H](N(C)C)[C@H]2O)[C@](C)(O)C[C@@H](C)C(=O)[C@H](C)[C@@H](O)[C@]1(C)O [ERYTHROMYCIN] ), measured MIC is 1

For this molecule ( C[C@H]1COc2c(N3CCN(C)CC3)c(F)cc3c(=O)c(C(=O)O)cn1c23.C[C@H]1COc2c(N3CCN(C)CC3)c(F)cc3c(=O)c(C(=O)O)cn1c23.O [LEVOFLOXACIN] ), measured MIC is 0.25
